Values were extracted from patent US9567336B2.

Target: human TLR7 (Homo sapiens, UniProt Q9NYK1)
Construct: host or cells: HEK293 (HEK-Blue hTLR7)
Sequence (Q9NYK1 27-1049): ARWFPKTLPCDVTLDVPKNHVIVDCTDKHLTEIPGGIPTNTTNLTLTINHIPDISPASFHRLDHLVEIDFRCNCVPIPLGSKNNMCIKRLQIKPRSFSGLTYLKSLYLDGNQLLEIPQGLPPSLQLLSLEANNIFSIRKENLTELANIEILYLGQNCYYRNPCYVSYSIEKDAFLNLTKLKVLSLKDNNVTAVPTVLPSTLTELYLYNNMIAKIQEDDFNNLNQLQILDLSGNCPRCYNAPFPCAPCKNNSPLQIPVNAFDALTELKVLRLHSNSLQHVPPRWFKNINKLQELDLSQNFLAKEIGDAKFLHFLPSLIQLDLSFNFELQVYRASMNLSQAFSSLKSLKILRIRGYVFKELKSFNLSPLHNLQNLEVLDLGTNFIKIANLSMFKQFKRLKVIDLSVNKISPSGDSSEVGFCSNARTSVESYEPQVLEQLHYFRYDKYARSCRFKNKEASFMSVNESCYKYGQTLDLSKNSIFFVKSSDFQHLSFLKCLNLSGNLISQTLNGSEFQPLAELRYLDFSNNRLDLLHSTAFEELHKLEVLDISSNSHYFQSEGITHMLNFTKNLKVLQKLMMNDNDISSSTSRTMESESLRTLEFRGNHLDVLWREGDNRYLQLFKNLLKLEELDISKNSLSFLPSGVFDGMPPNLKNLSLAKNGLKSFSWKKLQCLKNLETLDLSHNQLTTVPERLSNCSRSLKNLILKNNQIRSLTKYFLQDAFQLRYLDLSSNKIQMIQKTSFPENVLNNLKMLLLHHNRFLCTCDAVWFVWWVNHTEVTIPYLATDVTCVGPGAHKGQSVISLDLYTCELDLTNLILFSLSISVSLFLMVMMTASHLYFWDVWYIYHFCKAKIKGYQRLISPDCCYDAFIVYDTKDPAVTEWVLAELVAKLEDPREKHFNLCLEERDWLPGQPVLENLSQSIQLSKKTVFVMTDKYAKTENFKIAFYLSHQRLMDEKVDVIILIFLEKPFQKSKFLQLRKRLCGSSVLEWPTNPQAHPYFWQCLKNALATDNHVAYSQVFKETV
Assay: HEK-Blue hTLR7 NF-κB/AP-1 SEAP reporter cell assay
Type: cell-based
Conditions: HEK-Blue hTLR7 reporter cells, 10 μg/mL to 10 pg/ml, 24 hours, OD at 655 nm; FIGS. 1A, 1B
RESULT_TYPE: ability to activate TLR7 receptors (human TLR7)

CCCCCCCCCCCCCC(=O)OCCSC[C@H](N)C(=O)N[C@@H](CO)C(=O)Nc1ccc(Cn2c(O)nc3c(N)nc(NCCCC)nc32)cc1    activate TLR7 receptors
CCCCCCCCCCCCCCCC(=O)N[C@@H](CSCC(COC(=O)CCCCCCCCCCCCCCC)OC(=O)CCCCCCCCCCCCCCC)C(=O)Nc1ccc(Cn2c(O)nc3c(N)nc(NCCCC)nc32)cc1 (mixture of isomers)    activate TLR7 receptors
CCCCCCCCCCCCCCCC(=O)OCC(CSC[C@H](N)C(=O)N[C@@H](CO)C(=O)Nc1ccc(Cn2c(O)nc3c(N)nc(NCCCC)nc32)cc1)OC(=O)CCCCCCCCCCCCCCC (stereo partly drawn)    activate TLR7 receptors
CCCCCCCCCCCCCCCC(=O)OCCSC[C@H](N)C(=O)N[C@@H](CO)C(=O)Nc1ccc(Cn2c(O)nc3c(N)nc(NCCCC)nc32)cc1    activate TLR7 receptors
CCCCCCCCCCCCCC(=O)OCCSC[C@H](N)C(=O)N[C@@H](CCC(=O)Nc1ccc(Cn2c(O)nc3c(N)nc(NCCCC)nc32)cc1)C(=O)OC    activate TLR7 receptors
CCCCCCCCCCCCCC(=O)OCCSC[C@H](N)C(=O)Nc1ccc(Cn2c(O)nc3c(N)nc(NCCCC)nc32)cc1    activate TLR7 receptors

====

Target: human TLR2 (Homo sapiens)
Construct: host or cells: HEK293 (HEK-Blue hTLR2)
Sequence (O60603 21-784): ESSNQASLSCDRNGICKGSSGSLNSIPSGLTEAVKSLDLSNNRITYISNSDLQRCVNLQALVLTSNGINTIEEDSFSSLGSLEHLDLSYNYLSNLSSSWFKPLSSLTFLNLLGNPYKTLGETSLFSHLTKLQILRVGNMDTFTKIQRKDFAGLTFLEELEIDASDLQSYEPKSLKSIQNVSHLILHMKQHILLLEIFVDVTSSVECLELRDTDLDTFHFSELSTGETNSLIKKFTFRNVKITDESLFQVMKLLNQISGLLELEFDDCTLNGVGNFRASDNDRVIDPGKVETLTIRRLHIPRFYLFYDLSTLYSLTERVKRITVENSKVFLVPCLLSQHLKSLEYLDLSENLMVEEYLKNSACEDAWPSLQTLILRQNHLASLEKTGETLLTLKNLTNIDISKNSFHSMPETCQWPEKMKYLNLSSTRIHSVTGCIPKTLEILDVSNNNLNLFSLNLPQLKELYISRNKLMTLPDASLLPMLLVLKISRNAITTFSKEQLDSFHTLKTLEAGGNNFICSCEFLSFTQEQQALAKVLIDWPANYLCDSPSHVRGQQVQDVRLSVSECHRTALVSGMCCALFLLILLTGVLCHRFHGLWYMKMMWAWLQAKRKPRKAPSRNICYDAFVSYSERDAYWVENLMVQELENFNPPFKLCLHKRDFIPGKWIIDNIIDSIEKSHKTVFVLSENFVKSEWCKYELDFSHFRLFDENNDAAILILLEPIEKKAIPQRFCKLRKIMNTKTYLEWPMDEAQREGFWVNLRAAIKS
Assay: HEK-Blue hTLR2 NF-κB/AP-1 SEAP reporter cell assay
Format: cell-based
Conditions: HEK-Blue hTLR2 reporter cells, 10 μg/mL to 10 pg/ml, 24 hours, OD at 655 nm; FIGS. 3A, 3B
RESULT_TYPE: ability to activate TLR2 receptor (human TLR2)

CCCCCCCCCCCCCCCCCC(=O)OCCSC[C@H](N)C(=O)N[C@@H](CO)C(=O)Nc1ccc(Cn2c(O)nc3c(N)nc(NCCCC)nc32)cc1    activate TLR2 receptor
CCCCCCCCCCCCCC(=O)OCCSC[C@H](N)C(=O)N[C@@H](CCC(=O)Nc1ccc(Cn2c(O)nc3c(N)nc(NCCCC)nc32)cc1)C(=O)OC    activate TLR2 receptor
CCCCCCCCCCCCCC(=O)OCCSC[C@H](N)C(=O)Nc1ccc(Cn2c(O)nc3c(N)nc(NCCCC)nc32)cc1    activate TLR2 receptor

====

Target: human TLR2 (Homo sapiens)
Construct: host or cells: HEK293 (HEK-Blue hTLR2)
Assay: HEK-Blue hTLR2 NF-κB/AP-1 SEAP reporter cell assay
Type: cell-based
Settings: HEK-Blue hTLR2 reporter cells, 10 μg/mL to 10 pg/ml, 24 hours, OD at 655 nm; FIGS. 3A, 3B
RESULT_TYPE: ability to activate TLR2 receptor (human TLR2)

CCCCCCCCCCCCCCCC(=O)N[C@@H](CSCC(COC(=O)CCCCCCCCCCCCCCC)OC(=O)CCCCCCCCCCCCCCC)C(=O)Nc1ccc(Cn2c(O)nc3c(N)nc(NCCCC)nc32)cc1 (mixture of isomers)    activate TLR2 receptor
CCCCCCCCCCCCCC(=O)OCCSC[C@H](N)C(=O)N[C@@H](CO)C(=O)Nc1ccc(Cn2c(O)nc3c(N)nc(NCCCC)nc32)cc1    activate TLR2 receptor
CCCCCCCCCCCCCCCC(=O)OCCSC[C@H](N)C(=O)N[C@@H](CO)C(=O)Nc1ccc(Cn2c(O)nc3c(N)nc(NCCCC)nc32)cc1    activate TLR2 receptor
